Tested on: PBMC
conditions used: 12.5 µM
Quick list: Average (percentage cell inhibition), Mastoparan PBMC per entry.
// return numeric value only (unit: %, not printed)

Previously resolved entries follow.
CC[C@H](C)[C@H](N)C(=O)N[C@@H](C)C(=O)N[C@@H](CC(C)C)C(=O)N[C@@H](CCCCN)C(=O)N[C@@H](C)C(=O)N[C@@H](CC(C)C)C(=O)N[C@@H](C)C(=O)N[C@@H](C)C(=O)N[C@@H](CC(C)C)C(=O)N[C@@H](C)C(=O)N[C@@H](CCCCN)C(=O)N[C@@H](CCCCN)C(=O)N[C@H](C(=O)N[C@@H](CC(C)C)C(N)=O)[C@@H](C)CC; 9.183
CC[C@H](C)[C@H](N)C(=O)N[C@H](C(=O)N[C@@H](CC(C)C)C(=O)N[C@@H](CCCCN)C(=O)N[C@@H](C)C(=O)N[C@@H](CC(C)C)C(=O)N[C@@H](C)C(=O)N[C@@H](C)C(=O)N[C@@H](CC(C)C)C(=O)N[C@@H](C)C(=O)N[C@@H](CCCCN)C(=O)N[C@@H](CCCCN)C(=O)N[C@H](C(=O)N[C@@H](CC(C)C)C(N)=O)[C@@H](C)CC)[C@@H](C)CC; 42.1735

Continue with the next compound.
Average (percentage cell inhibition), Mastoparan PBMC for CC[C@H](C)[C@H](N)C(=O)N[C@@H](CC(N)=O)C(=O)N[C@@H](CC(C)C)C(=O)N[C@@H](CCCCN)C(=O)N[C@@H](C)C(=O)N[C@@H](CCCNC(=N)N)C(=O)N[C@@H](C)C(=O)N[C@@H](C)C(=O)N[C@@H](CC(C)C)C(=O)N[C@@H](C)C(=O)N[C@@H](CCCCN)C(=O)N[C@@H](CCCCN)C(=O)N[C@H](C(=O)N[C@@H](CC(C)C)C(N)=O)[C@@H](C)CC ?
-10.6069
